Target: T1, human MSLN-FL-his protein (human, UniProt Q13421 296-580)
T1 construct: made in HEK293E cells, purified on nickel column; also called hMSLN-FL-his; human MSLN full-length protein; not shown: His tag
T1 sequence (Q13421 other isoform, or with tags, fused parts or gaps): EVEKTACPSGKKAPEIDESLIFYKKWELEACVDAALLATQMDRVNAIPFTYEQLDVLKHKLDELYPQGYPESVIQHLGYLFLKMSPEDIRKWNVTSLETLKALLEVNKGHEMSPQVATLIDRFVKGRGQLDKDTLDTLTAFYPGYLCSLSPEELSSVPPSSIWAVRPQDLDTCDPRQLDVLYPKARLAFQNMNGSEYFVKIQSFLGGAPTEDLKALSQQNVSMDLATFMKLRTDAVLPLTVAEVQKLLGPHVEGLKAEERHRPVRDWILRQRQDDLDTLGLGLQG
Assay: SPR (Biacore), antibody captured on Protein A chip;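 note: measured at 25 °C, analyte injected 240 s in five twofold dilutions from 200 nM, dissociation up to 600 s, double-referenced, fitted with Langmuir 1:1 model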
quantity: koff (s⁻¹)
Write it as a number; the unit s⁻¹ goes unstated.

Would you please look over these solved cases?
[[record]]
binder = "S009-F2.39.3 (antibody, human IgG1, kappa, V domains shown, human-murine chimeric antibody, human IgG1/kappa constant regions) VH: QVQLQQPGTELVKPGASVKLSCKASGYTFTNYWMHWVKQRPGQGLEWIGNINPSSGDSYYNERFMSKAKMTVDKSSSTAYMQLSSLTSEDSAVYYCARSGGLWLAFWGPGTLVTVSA VL: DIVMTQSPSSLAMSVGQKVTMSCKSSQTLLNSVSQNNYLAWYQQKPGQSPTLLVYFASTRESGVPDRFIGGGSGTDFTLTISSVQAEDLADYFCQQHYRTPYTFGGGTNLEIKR"
numeric_result = 0.000122

[[record]]
binder = "S009-F2.21.4 (antibody, human IgG1, kappa, V domains shown, human-murine chimeric antibody, human IgG1/kappa constant regions) VH: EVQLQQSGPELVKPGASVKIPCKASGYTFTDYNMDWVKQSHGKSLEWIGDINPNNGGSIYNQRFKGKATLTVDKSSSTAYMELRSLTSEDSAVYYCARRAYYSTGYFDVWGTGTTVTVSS VL: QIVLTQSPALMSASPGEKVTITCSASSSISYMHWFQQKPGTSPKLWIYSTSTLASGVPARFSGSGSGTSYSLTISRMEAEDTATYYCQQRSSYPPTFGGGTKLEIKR"
numeric_result = 0.0227


Now consider a different binder.
Q) Form field: reported koff of S009-F4-127.10 (antibody, human IgG1, kappa, V domains shown, human-murine chimeric antibody, human IgG1/kappa constant regions) VH: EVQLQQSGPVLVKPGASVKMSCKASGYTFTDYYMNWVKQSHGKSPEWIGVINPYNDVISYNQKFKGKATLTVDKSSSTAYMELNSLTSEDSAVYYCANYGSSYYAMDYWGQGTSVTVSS VL: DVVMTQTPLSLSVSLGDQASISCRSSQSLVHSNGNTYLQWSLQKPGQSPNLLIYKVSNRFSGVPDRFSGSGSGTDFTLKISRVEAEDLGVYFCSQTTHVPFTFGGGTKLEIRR
A) 0.000433

Values were extracted from patent US20250250357A1.
